assay: Liver-to-plasma partitioning (Kp); format: in vivo, Sprague Dawley rats; conditions: female, Sprague Dawley, rat, oral, 6.3 mg/kg/day, F, 5 days, mean ± SD n=4, read-out: Liver Kp (liver-to-plasma ratio)
assay readout: Kp at 120 h
Number only, no unit.

Any idea what its Kp at 120 h is? The compound is O=C(O)C(F)(OC(F)(F)C(F)(OC(F)(F)C(F)(OC(F)(F)C(F)(F)C(F)(F)F)C(F)(F)F)C(F)(F)F)C(F)(F)F (stereo not shown) [HFPO-TeA]
1.65

---

test: Liver-to-plasma partitioning (Kp); type: in vivo, Sprague Dawley rats; conditions: male, Sprague Dawley, rat, oral, 2.3 mg/kg/day, M, 5 days, mean ± SD n=4, read-out: Liver Kp (liver-to-plasma ratio)
assay readout: Kp at 120 h
Would you mind answering with just the numeric figure?

I am curious: what Kp at 120 h value has been reported for O=C(O)C(F)(OC(F)(F)C(F)(OC(F)(F)C(F)(OC(F)(F)C(F)(F)C(F)(F)F)C(F)(F)F)C(F)(F)F)C(F)(F)F (stereo not shown) ?
1.54

---

assay: Liver-to-plasma partitioning (Kp); assay type: in vivo, Sprague Dawley rats; details: female, Sprague Dawley, rat, oral, 2.3 mg/kg/day, F, 5 days, mean ± SD n=4, read-out: Liver Kp (liver-to-plasma ratio)
assay readout: Kp at 120 h
Enter a number only.

Tell me the measured Kp at 120 h of O=C(O)C(F)(OC(F)(F)C(F)(OC(F)(F)C(F)(OC(F)(F)C(F)(F)C(F)(F)F)C(F)(F)F)C(F)(F)F)C(F)(F)F (stereo not shown) , please.
1.9

---

experiment: Plasma HFPO-TeA dosimetry; type: in vivo, Sprague Dawley rats; details: female, Sprague Dawley, rat, plasma, oral, 6.3 mg/kg/day, F, 2 h after first dose, mean ± SD n=4; read-out: 2 h Plasma Conc.
assay readout: concentration at 2 h (µM)
// units = µM; emit number, no label

Can you look up the measured concentration at 2 h of O=C(O)C(F)(OC(F)(F)C(F)(OC(F)(F)C(F)(OC(F)(F)C(F)(F)C(F)(F)F)C(F)(F)F)C(F)(F)F)C(F)(F)F (stereo not shown) for me?
53.2

---

assay: Ultracentrifugation plasma protein binding assay, rat plasma; format: in vitro ADME; settings: both sexes, Sprague Dawley, rat, rat plasma, 10000 nM, Rep A; read-out: Fraction Unbound in plasma (fup), Rep A
assay readout: fraction unbound at 4 h, 10 µM
Give your answer as a number; write no unit.

O=C(O)C(F)(OC(F)(F)C(F)(OC(F)(F)C(F)(OC(F)(F)C(F)(F)C(F)(F)F)C(F)(F)F)C(F)(F)F)C(F)(F)F (stereo not shown)	0.00493

Reported fraction unbound at 4 h, 10 µM for C[C@]12CC[C@H]3[C@@H](CCC4=CC(=O)CC[C@@]43C)[C@@H]1CC[C@@H]2O : what is it?
0.0553

Repeat for the following molecule: O=C(O)C(F)(OC(F)(F)C(F)(F)C(F)(F)F)C(F)(F)F (stereo not shown)
0.0304

O=C(O)C(F)(OC(F)(F)C(F)(OC(F)(F)C(F)(F)C(F)(F)F)C(F)(F)F)C(F)(F)F (stereo not shown) , same question.
0.00165

---

Here the recorded fraction unbound at 4 h, 10 µM is given for each entry.
Assay: Ultracentrifugation plasma protein binding assay, rat plasma
Assay type: in vitro ADME
Conditions: both sexes, Sprague Dawley, rat, rat plasma, 10000 nM, Rep B; read-out: Fraction Unbound in plasma (fup), Rep B
Procedure: Information on the chemicals and materials used in the plasma protein binding work can be found in Supplementary Text S10 and Table S3. Human and rodent plasma were evaluated for plasma protein binding using ultracentrifugation, as previously described. […] Fraction unbound (fu) in plasma (fup) and percent stability calculations are detailed in Supplementary Text S10. […] Renal clearance was calculated using the glomerular filtration rate (a species-dependent constant) and the fub. […]
# respond with the number and nothing more

Some entries whose results are on file:
C[C@]12CC[C@H]3[C@@H](CCC4=CC(=O)CC[C@@]43C)[C@@H]1CC[C@@H]2O [Testosterone]	0.0589
O=C(O)C(F)(OC(F)(F)C(F)(OC(F)(F)C(F)(OC(F)(F)C(F)(F)C(F)(F)F)C(F)(F)F)C(F)(F)F)C(F)(F)F (stereo not drawn) [HFPO-TeA]	0.00519

Find the recorded fraction unbound at 4 h, 10 µM belonging to O=C(O)C(F)(OC(F)(F)C(F)(OC(F)(F)C(F)(F)C(F)(F)F)C(F)(F)F)C(F)(F)F (stereo not drawn) [HFPO-TA] and report it.
0.00156
